assay: label from the status in PepcDB records
readout: protein production

| chainSequence | protein production |
| --- | --- |
| MSSWPQERRDSLLELVRKSREIFSSMKPLLRVGDRPRAVFVGDTHGAFMVTKYVFENFSDYDAIVFLGDYVDREPYGLENLEIILSHFVENKDKVIVLRGNHESPLTNEYYGFRAEVREKLGDENYKEFVDLFSEMPYAAIVNNYLCVHGGIARNLKNVQQIEELKKPDIIPEDEIAFEMLWNDPREELDGFVPNIRGEGTFFYGKDVTLEFLKENSLKGIIRGHEVADGFRSEIDERVITVFSSRYHKMRAGILLQDGEKFNMVYLDEEFLLKGDKS | failed |
| MKIALINENSQASKNHIIYDSLKEATDKKGYQLFNYGMRGEEGESQLTYVQNGLMAAILLNTKAVDFVVTGCGTGVGAMLALNSFPGVVCGLAVDPTDAYLYSQINGGNALSIPYAKGFGWGAELTLKLMFERLFAEEMGGGYPRERVIPEQRNARILNEVKQITHNDLMTILKIIDQDFLKDTISGKYFQEYFFENCQDDEVAAYLKEVLAK | not failed |
| MDSRSLSVHDGAMQTLTVPDSGLAPLLPGQRLARGVCRHLRSHDFVSVVELVPAPGLRVDVMALGPKGEIWVVECKSSRADYQSDRKWQGYLDWCDRFFFAVDEAFPVDLLPEGTGLMLADGYDAEILRIGPEGRLAPARRKAVIQGFARHAALRLQGLRDPGAFPG | failed |
| MIREAQRSELPALLELWLESTIWGHPFIKSSYWRDCIPLVRDAYLANAQNWVWEEDGKLLGFVSIMEGRFLAAMFVAPKAVRRGIGKALMQYVQQRHPHLMLEVYQKNQPAIDFYHAQGFHIVDCAWQDETQLPTWIMSWPVVQTL | failed |
| MLLVGVAIAFLHKYIVLVVLTSILITACQGDIIDNPNLESNVPQSTDCRVVEHAVGKTKICGKPKKIAVLEPKMLSLMLALDVQPAAYADAYLVNAPQFDNPSQQIPYLGKYVTSQPINLGDRSSPSLEALTLLKPDLILGLNYQDNQLFSAIAPTVFIDNEQNWQESIKIVAKALDSQKNIPSIITSQQQQLAKVRAQLESLVSTHPRVLNIVCSQLMDYIEVTYNGNTIEILEKIGFQPVFLPDIERKPGLRPQITLETLAQLDADIVIVNTWVDNWNGKSTYTVPLKELKQKWAKNPLLHNSQAWKEGRVYFVDYTLWGNVIGAPIANALILEQLPSLLLSNTLKP | failed |
| MARFDRYLLSQLVALFGFFSLVLVLVYWINRAVGLFDDLISDGQSALVFLEFSLLALPNVIRLVLPLSAFAATIYVVNRLSQESELVVMQATGFSAFRLARPVIWFGLIVALMMIVLMNLLVPASRATLSARSAEISQNATARFLRDGEFLHPADGVTLYIREVTETGELRDLLLVDDRDPARSTAYTARRALLVRTDTTPKLLMIDGSAQTLTREGRRLELTRFDDVTYDLGAFMTGSGPKRRVLEELPTMTLLAPTAEVLEETRSTRAAALYEGHSRIGQPFLGFASSLIGFAALLLGSFSRFGLWWQILFAVLLLIVVQTINVAASGVGVTDEQLWPLAYAAPVTGFAIGILLLWIGQRPRRLRRALNGIFAS | failed |
| APTSSNDTGKTVVAVTACPTGIAHTYMAAEKLQETANKLGVRIKVETNGSRGVENRLTDKEIAEADGVIIAADVQVDMPRFDGKHLIAKPVAAGIHKPEELIKEAISGNAPVYKAESGSEATEST | not failed |
| MAIATARAGGKETGTEQMYILQVTNSRSTMSKMSNVKEVNASTAFSMIKKGALLVDVRETREINRKAFGVSDYLSVPMSRFQSSLHEIPAERKVILACHSGNRSSIASRILVNSGHRKVHNLQHGIISWEREGLPVRKKESPSPLTMLFQMFRKEA | failed |

Entry `MHILVTGFAPFDNQNINPSWEAVTQLEDIIGTHTIDKLKLPTSFKKVDNIINKTLASNHYDVVLAIGQAGGRNAITPERVAINIDDARIPDNDDFQPIDQAIHLDGAPAYFSNLPVKAMTQSIINQGLPGALSNSAGTFVCNHTLYHLGYLQDKHYPHLRFGFIHVPYIPEQVIGKPDTPSMPLEKIVAGLTAAIEAISNDEDLHLALGTTE` — recorded protein production = failed
